Source: paper PMC6152655

# experiment: Pharmacokinetic study in rats after oral administration of R. officinalis extract (UHPLC-ESI-MS/MS of plasma)
# Type: in vivo, Sprague-Dawley (SD) rats
# measurement_setup: male, Sprague-Dawley; rat plasma, oral R. officinalis extract 0.24 g/kg (low dose), n = 6
readout_label: AUC(0-inf) (ng·h/mL)

INSERT INTO measurements (compound_string, value_observed) VALUES
  ('CC(C)c1cc2c(c(O)c1O)[C@@]1(C(=O)O)CCCC(C)(C)[C@@H]1CC2', 14900),
  ('CC(C)c1cc2c(c(O)c1O)[C@@]13CCCC(C)(C)[C@@H]1[C@H](OC3=O)[C@H]2O', 552),
  ('CC(C)c1cc2c(c(O)c1O)[C@@]13CCCC(C)(C)[C@@H]1C[C@@H]2OC3=O', 1820);
